# measured_target: T1, mouse PAI-1 (mouse, UniProt P22777 24-401)
# T1 sequence: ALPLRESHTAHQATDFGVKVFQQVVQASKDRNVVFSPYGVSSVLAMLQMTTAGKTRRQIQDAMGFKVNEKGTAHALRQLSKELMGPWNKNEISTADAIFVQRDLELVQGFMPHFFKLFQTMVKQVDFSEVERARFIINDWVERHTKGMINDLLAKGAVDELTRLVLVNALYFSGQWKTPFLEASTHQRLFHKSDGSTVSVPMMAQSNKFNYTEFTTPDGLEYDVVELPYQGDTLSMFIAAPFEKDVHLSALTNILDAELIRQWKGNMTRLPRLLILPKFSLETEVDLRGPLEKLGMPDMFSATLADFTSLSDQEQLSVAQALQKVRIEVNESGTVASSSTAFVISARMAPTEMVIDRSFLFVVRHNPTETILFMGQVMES
# assay_name: cell-based or functional assay
Label 1 when IC50 ratio mouse/human is strictly below 50; otherwise label -1.

For orientation, consider the following solved cases.
{"binder": "Antibody 06, scFv (scFv, V domains shown) VH: QVQLQQSGAEVKKPGSSVKVSCKASGGTFSSYAISWVRQAPGQGLEWMGGIIPTFGTANYAQKFQGRVTITADESTSTAYMELSGLRSEDTAVYYCAREKRQWLEGHFDYWGRGTPVTVSS VL: DIQMTQSPSFLSASIGDRVTITCRASEGIYHELAWYQQKPGKAPKLLIYRASSLASGAPSRFSGSGSGTDFTLTISSLQPDDFATYYCQQYSNYPLTFGRGTKLEIK", "class": 1}
{"binder": "Antibody 13, scFv (scFv, V domains shown) VH: QVQLQQSGAEVKKPGSSVKVSCKASGGTFSSYAISWVRQAPGQGLEWMGGIIPTFGTANYAQKFQGRVTITADESTSTAYMELSDLRSEDTAVYYCAREKRQWLEGHFDYWGRGTPVTVSS VL: DIQMTQSPSFLSASIGDRVTITCRASEGIYHSLAWYQQKPGKAPKLLIYRASSLASGAPSRFSGSGSGTDFTLTISSLQPDDFATYYCQQYSNYPLTFGGGTKLEIK", "class": -1}
{"binder": "Antibody 03, scFv (scFv, V domains shown) VH: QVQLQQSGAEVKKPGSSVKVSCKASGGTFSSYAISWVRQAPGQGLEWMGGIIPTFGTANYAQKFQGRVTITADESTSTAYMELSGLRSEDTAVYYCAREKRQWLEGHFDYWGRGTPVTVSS VL: DIQMTQSPSFLSASIGDRVTITCRASEGIYRSLAWYQQKPGKAPKLLIYKASSLASGAPSRFSGSGSGTDFTLTISGLQPDDFATYYCQQYSNYPLTFGGGTKLEIK", "class": 1}
{"binder": "Antibody 22, scFv (scFv, V domains shown) VH: QVQLQQSGAEVKKPGSSVKVSCKASGGTFSGYAISWVRQAPGQGLEWMGGIIPTFGTANYSQKFQGRVTITADESTSTAYMELSGLRSEDTAVYYCAREKRQWLEGHFDYWGRGTPVTVSS VL: DIQMTQSLSFLSASIGDRVTITCRASEGIYHALAWYQQKPGKAPKLLIYRASSLASGAPSRFSGSGSGTDFTLTISSLQPDDFATYYCQQYSNYPLTFGGGTKLEIK", "class": -1}
{"binder": "Antibody 01, IgG1, not germlined (antibody, V domains shown) VH: QVQLVQSGAEVKKPGSSVKVSCKASGGTFSSYAISWVRQAPGQGLEWMGGIIPIFGTANYAQKFQGRVTITADESTSTAYMELSSLRSEDTAVYYCAREKRQWLEGHFDYWGRGTLVTVSS VL: DIQMTQSPSTLSASVGDRVTITCRASEGIYRSLAWYQQKPGKAPKLLIYKASSLASGVPSRFSGSGSGTEFTLTISSLQPDDFATYYCQQYSNYPLTFGGGTKVEIK", "class": 1}
{"binder": "Antibody 02, IgG1, not germlined (antibody, V domains shown) VH: QVQLVQSGAEVKKPGSSVKVSCKASGGTFSSYAISWVRQAPGQGLEWMGGIIPTFGTANYAQKFQGRVTITADESTSTAYMELSSLRSEDTAVYYCAREKRQWLEGHFDYWGRGTLVTVSS VL: DIQMTQSPSTLSASVGDRVTITCRASEGIYHSLAWYQQKPGKAPKLLIYKASSLASGVPSRFSGSGSGTEFTLTISSLQPDDFATYYCQQYSDYPLTFGGGTKVEIK", "class": -1}

Task item: Does this binder meet the criterion IC50 ratio mouse/human < 50? Antibody 07, scFv (scFv, V domains shown) VH: QVQLQQSGAEVKKPGSSVKVSCKASGGTFSSYAISWVRQAPGQGLEWVGGIIPTFGTANYAQKFQGRVTITADESTSTAYMELSGLRSEDTAVYYCAREKRQWLEGHFDYWGRGTPVTVSS VL: DIQMAQSPSFLSASIGDRVTITCRASEGIYHELAWYQQKPGKAPKLLIYRASSLASGAPSRFSGSGSGTDFTLTISSLQPDDFATYYCQQYSNYPLTFGGGTKLEIK
Reply: 1

Task item: Does this binder meet the criterion IC50 ratio mouse/human < 50? Antibody 04, scFv (scFv, V domains shown) VH: QVRLQQSGAEVKKPGSSVKVSCKASGGTFSSYAISWVRQAPGQGLEWMGGIIPTFGTANYAQKFRGRVTITANESTSTAYMELSGLRSEDTAVYYCAREKRQWLEGRFDYWGRGTLVTVSS VL: DIQMTQSPSFLSASIGDRITITCRASEGIYHSLAWYQQKPGKAPKLLIHRATSLASGTPSRFGGSGSGTDFALTISSLQPDDFATYYCQQYSNYPLTFGGGTKLEIK
Reply: 1

Task item: Does this binder meet the criterion IC50 ratio mouse/human < 50? Antibody 18, scFv (scFv, V domains shown) VH: QVQLQQSGAEVKKPGSSVKVSCKASGGTFSSYAISWVRQAPGQGLEWMGGIIPTFGTANYAQKLQGRVTITADESTSTAYMELSGLRSEDTAVYYCAREKRQWLEGHFDYWGRGTPVTVSS VL: DIQMTQSPSFLSASIGDRVTITCRASEGIYHALAWYQQKPGKAPKLLIYRASSLASGAPSRFSGSGSGTDFTLTISSLQPDDFATYYCQQYSNYPLTFGGGTKLEIK
Reply: -1

Task item: Does this binder meet the criterion IC50 ratio mouse/human < 50? Antibody 26, scFv (scFv, V domains shown) VH: QVQLQQSGAEVKKPGTSVKVSCKASGGTFSSYAISWVRQAPGQGLEWMGGIIPIFGTANYAQKFQGRVTITADESTSTAYMELSSLRSEDTAVYYCAREKRQWLEGHFDYWGRGTPVTVSS VL: DIQMTQSPSFLSASIGDRVTITCRASEGIYHTLAWYQQKPGKAPKLLIYRASSLASGAPSRFSGSGSGTDFTLTISSLQPDDFATYYCQQYSNYPLTFGGGTKLEIK
Reply: -1
